B1: HDV Ribozyme (parent)
chain: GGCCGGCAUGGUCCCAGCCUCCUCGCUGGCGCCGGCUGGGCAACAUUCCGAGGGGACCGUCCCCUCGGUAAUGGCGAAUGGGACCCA

Variants of: B1
Test: self-cleavage, relative activity (ratio to wild type); higher = more cleavage; co-transcriptional
The following variants are shown together with reported self-cleavage values.
experimental.readout: self-cleavage

INSERT INTO assay_data (sequence, experimental_readout, experimental_value) VALUES
  ('UGCCGGCAUGGUCCCAGCCUCCUCGCUGGCGCCGGCUGGGCAACAUUCCGAGGGGACCGUCCGCUCGGUAAUGGCGAAUGGGACCCA [G1U C63G]', 'self-cleavage', 0.453),
  ('GGCCGGCAUGGUCCCAGCCUCCUCGCUGGCGCCGGCUGGGCAACAUUUCGAGGGGACCUUCCCCUCGGUAAUGGCGAAUGGGACCCA [C48U G59U]', 'self-cleavage', 1.06),
  ('GACCGGCAUGGUCCCCGCCUCCUCGCUGGCGCCGGCUGGGCAACAUUCCGAGGGGACCGUCCCCUCGGUAAUGGCGAAUGGGACCCA [G2A A16C]', 'self-cleavage', 0.0733),
  ('GGCGGGCAUGGUCACAGCCUCCUCGCUGGCGCCGGCUGGGCAACAUUCCGAGGGGACCGUCCCCUCGGUAAUGGCGAAUGGGACCCA [C4G C14A]', 'self-cleavage', 0.0852),
  ('GGCCGGCAUGGUCCCAGCCGCCUCGCUGGCGCCGGCUGGGCAACAUUCCGAGGGGACCGUCCCCUCGGUAAUGGCGAAUGGGACCAA [U20G C86A]', 'self-cleavage', 0.237),
  ('GGCCGGCAUGGUCCAAGCCUCCUCGCUGGCGCCGGCUUGGCAACAUUCCGAGGGGACCGUCCCCUCGGUAAUGGCGAAUGGGACCCA [C15A G38U]', 'self-cleavage', 0),
  ('GGCCAGCGUGGUCCCAGCCUCCUCGCUGGCGCCGGCUGGGCAACAUUCCGAGGGGACCGUCCCCUCGGUAAUGGCGAAUGGGACCCA [G5A A8G]', 'self-cleavage', 0.0692),
  ('GGCCGGCAUGGUCCCAGCCUCCUCGCUGACGCCGGCUGGGCAACAUUCCGAGGGGACCGUCCCCUCCGUAAUGGCGAAUGGGACCCA [G29A G67C]', 'self-cleavage', 0.237),
  ('GGCCGGCAUGCUCCCAGCCUCCUCGCUGGCGCCGGCUGGGCAACAUUCCGAGGGGACCGUCCCCUCGGUAAUGGCAAAUGGGACCCA [G11C G76A]', 'self-cleavage', 0.312),
  ('GGCCGGCAUGGUCCCAGCCGCCUCGCUGGCGCCGGCUGGGCAACAUUCCGAGGGGACCGUCCCCUCGGUAAUGGCGAAUGGUACCCA [U20G G82U]', 'self-cleavage', 0.104),
  ('GGCCGGCAUGGUCCCAGCCUCCUCGCUGGCGCCAGCUGGGCAACAUUCCGAGGGGACCGUCCCGUCGGUAAUGGCGAAUGGGACCCA [G34A C64G]', 'self-cleavage', 0.0963),
  ('GGCCGGCAUGGUCCCAGCCUCCUCGCUGGCCCCAGCUGGGCAACAUUCCGAGGGGACCGUCCCCUCGGUAAUGGCGAAUGGGACCCA [G31C G34A]', 'self-cleavage', 0.0963),
  ('GGCCGGAAUGGUCCCAGCCUCCUCGCUGGAGCCGGCUGGGCAACAUUCCGAGGGGACCGUCCCCUCGGUAAUGGCGAAUGGGACCCA [C7A C30A]', 'self-cleavage', 0.0282),
  ('GGCCGGCAUGGUCCCAGCCUCCUCGCUGGCGCCGGCUGGGCAACAUUCCGAGGGGACCGUGCCCUCGGUGAUGGCGAAUGGGACCCA [C61G A70G]', 'self-cleavage', 0.844),
  ('GGGCGGCAUGGUCCCAGCCUCCUCGCUGGCGCCGGCUGGGCAACAUUCCGAGGGGACCGUCCCCUCGGUAACGGCGAAUGGGACCCA [C3G U72C]', 'self-cleavage', 0.267),
  ('GGCCGGCAUGGUCCCAGCCUCCUCGCUGGCGCCGGCUGGGCAACAGUCCGACGGGACCGUCCCCUCGGUAAUGGCGAAUGGGACCCA [U46G G52C]', 'self-cleavage', 0.429),
  ('GGCCGGCAUGGUCCCAGCCUCCUCGCUGGCGCCGGCUGGGUAACAUUCCGAGGGGACCGUCCCCUCGGUAAUGGCGAAUGGGCCCCA [C41U A83C]', 'self-cleavage', 0.332),
  ('GGUCGGCAUGGUCCCAGACUCCUCGCUGGCGCCGGCUGGGCAACAUUCCGAGGGGACCGUCCCCUCGGUAAUGGCGAAUGGGACCCA [C3U C18A]', 'self-cleavage', 0.0782),
  ('GGCCGGCAUGGUCCCAGCCUCCUCGCUGGCGCCGGCUGGACAACAUUCCGAGGGGACCGUCCCCUCGGUAAUGGUGAAUGGGACCCA [G40A C75U]', 'self-cleavage', 0.157),
  ('GGCCGGCAUGGUCCCAGCCUCCUCGCUGCCGCCGGCUGGGCAACAUUCCGAGGAGACCGUCCCCUCGGUAAUGGCGAAUGGGACCCA [G29C G54A]', 'self-cleavage', 0.0773),
  ('GGCCGGCAUGGUCCCAGCCUCCUCGCUGGCGCCGGCUGGGCAACAUUCAGAGGGGACCGUCGCCUCGGUAAUGGCGAAUGGGACCCA [C49A C62G]', 'self-cleavage', 0.128),
  ('GGCCGGCAUGGUCCCAGCCUCCUCGCUGGCGCCGGCUGGGCAACAUCCCGAGGGGACUGUCCCCUCGGUAAUGGCGAAUGGGACCCA [U47C C58U]', 'self-cleavage', 0.752),
  ('GGCCGGCAUGGUCCCAGCCUCCUCGCUGGCGCCGGCUGGGCAACAUUCCGAGUGGACCGUCCCCUCGGUAAUGGGGAAUGGGACCCA [G53U C75G]', 'self-cleavage', 0.214),
  ('GGCCGGCAUGGUCCCAGCCUCCUCGCUUGCGCCGGCUGGGCAACAUUCCGAGGGGACCGUCCCCCCGGUAAUGGCGAAUGGGACCCA [G28U U65C]', 'self-cleavage', 0.0707),
  ('GGCCGGCAUGGUCCCAGCCUCCUCGCUGGCGCCGGCUGGGCAACAUUCCGAGGGGACCGUCCCCUCCGUAAUGGCGAAUGGGACACA [G67C C85A]', 'self-cleavage', 0.7),
  ('GGCAGGCAUGGUCCCAGCCUCCUCGCUGGCGCCGGCUGGGCAACAUUCCGAGGGGACCGUCCCCUCGGUAAGGGCGAAUGGGACCCA [C4A U72G]', 'self-cleavage', 0.111),
  ('GGCCGGCAUGGUCCCAGCCUCCUCGCUGGCGCCGGCUGGGCAACAUUCCGAGGGGACUGUCCCCUCGGUAAUGGCGACUGGGACCCA [C58U A78C]', 'self-cleavage', 0.305),
  ('GGCCGGCAUGGUCCCAGCCUCCUCGCUGGCGCCGGCUGGACAACAUUCCGAGGGGACCGUCCCCUCGGUAAUGGCGUAUGGGACCCA [G40A A77U]', 'self-cleavage', 0.523),
  ('GGCCGGCAUGGUCCCAGCCUCCUCGCUGGUGCCGGCUGGGCAACAUGCCGAGGGGACCGUCCCCUCGGUAAUGGCGAAUGGGACCCA [C30U U47G]', 'self-cleavage', 0.571),
  ('GGCCGGCAUGGUCCCAGCCUCCUCGCUGGCGCCGGCUGGGCAACAUUCCGAGGGGACCGUACCCUCGGUAAUGGCGAAUGGGACCCU [C61A A87U]', 'self-cleavage', 0.978),
  ('GGCCCGCAUGGUCCCAGCCUCCUCGCUGGCGCCGGCUGGGCAACAUUCCGCGGGGACCGUCCCCUCGGUAAUGGCGAAUGGGACCCA [G5C A51C]', 'self-cleavage', 0.293),
  ('GGCCGGCAUGGUCCCAGCCUCCUCGCUGGCGCCGGCUGGGCAACAUUCCGAGGGGCCCGUCGCCUCGGUAAUGGCGAAUGGGACCCA [A56C C62G]', 'self-cleavage', 0.458),
  ('GGCUGGCAUGGUCCCAGCCUCCUCGCUGGCGCCGGCUGGGCAACAUUCCGAGGGGACCGUCCCCUCAGUAAUGGCGAAUGGGACCCA [C4U G67A]', 'self-cleavage', 0.554),
  ('GGCCGGCAUGGUCCCAGCCUCCGCGCUGGCGCCGCCUGGGCAACAUUCCGAGGGGACCGUCCCCUCGGUAAUGGCGAAUGGGACCCA [U23G G35C]', 'self-cleavage', 0.0639),
  ('GGCCGGCAUGGUCCCACCCUCCUCGCUGGCGCCGGCUGGGCAACAUUCCGAGGGGACCGUCCCCUCGAUAAUGGCGAAUGGGACCCA [G17C G68A]', 'self-cleavage', 0.297),
  ('GGCCGGCAUGCUCCCAGCCUCCUCGCUGGCGCCGGCUGGGCAACAUUCCGAGGGGACCGUCCCCUCGGUAAUGGCGAAUGGGAACCA [G11C C84A]', 'self-cleavage', 0.458),
  ('CGCCGGCAUGGUCCCAGCCUCCUCGCUGGCGCCGGAUGGGCAACAUUCCGAGGGGACCGUCCCCUCGGUAAUGGCGAAUGGGACCCA [G1C C36A]', 'self-cleavage', 0.151),
  ('GGCCGGCAUGGUGCCUGCCUCCUCGCUGGCGCCGGCUGGGCAACAUUCCGAGGGGACCGUCCCCUCGGUAAUGGCGAAUGGGACCCA [C13G A16U]', 'self-cleavage', 0.19);
